The measurements presented in this section are drawn from ChEMBL document CHEMBL2157973.

Biological target: UniProt P35372
Sequence (P35372 whole entry): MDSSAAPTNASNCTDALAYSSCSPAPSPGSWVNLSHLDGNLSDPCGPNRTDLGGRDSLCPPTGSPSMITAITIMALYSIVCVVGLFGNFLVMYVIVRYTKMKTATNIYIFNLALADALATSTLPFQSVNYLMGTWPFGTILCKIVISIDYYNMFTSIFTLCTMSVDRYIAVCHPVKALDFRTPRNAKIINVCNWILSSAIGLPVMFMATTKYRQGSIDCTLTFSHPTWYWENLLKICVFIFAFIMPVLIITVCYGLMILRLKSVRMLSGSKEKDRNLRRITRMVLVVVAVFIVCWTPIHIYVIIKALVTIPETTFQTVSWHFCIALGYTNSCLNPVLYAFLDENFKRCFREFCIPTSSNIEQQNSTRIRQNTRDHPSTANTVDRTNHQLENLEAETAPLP
Assay: Inverse agonist activity at human recombinant mu opioid receptor expressed in CHO cells after 3 hrs by [35S]GTPgammaS binding assay
observationType: pEC50
Value format note: pEC50 is -log10 of concentration (mol/L); just state the number.

Query :: For CS(=O)(=O)O[C@@H]1CC[C@@]2(O)[C@H]3Cc4ccc(O)c5c4[C@@]2(CCN3CC2CC2)[C@H]1O5 , what is its reported pEC50?
Result :: 8.59
